System: TKY Wild-type
Format: cell-based, influenza A virus H4N2
Conditions: read-out: IC50 (nM, based on ZA) Wild-type
Reported metric: IC50 (nM)
// return numeric value only (unit: nM, not printed)

Lookup: Please report the recorded IC50 for CC(=O)N[C@H]1[C@H]([C@H](O)[C@H](O)CO)OC(C(=O)O)=C[C@@H]1N=C(N)N [compound 1, zanamivir] .
Found: 56

----------
Tested on: TKY Drug-free p23 (DF23)
Format: cell-based, influenza A virus H4N2
Settings: read-out: IC50 (nM, based on ZA) Drug-free p23
Reported metric: IC50 (nM)
// return numeric value only (unit: nM, not printed)

Lookup: Please report the recorded IC50 for CC(=O)N[C@H]1[C@H]([C@H](O)[C@H](O)CO)OC(C(=O)O)=C[C@@H]1N=C(N)N .
Found: 38
